Test system: Fibroblast
Test: Multiplex assay against human fibroblast
Assay type: toxicity, cell-based
Settings: 24 h, 10 µM, compound concentration 10 uM, replicate 2
assay readout: Population Tubulin-Different-Phenotype (%)
Quick note: number first, unit second.

Some compounds with recorded Population Tubulin-Different-Phenotype (%):
{"compound": "CN[C@@H](C)C(=O)N[C@H](C(=O)N1CCC[C@H]1C(=O)Nc1snnc1-c1ccccc1)C1CCCCC1", "assayed system": "Fibroblast", "test value": "68%"}
{"compound": "O=C(CCCc1ccccc1)Nc1nc2ccccc2c(=O)s1", "assayed system": "Fibroblast", "test value": "62%"}
{"compound": "CN1CCN(c2cc(-c3ccccc3)nc(N)n2)CC1", "assayed system": "Fibroblast", "test value": "64%"}
{"compound": "Cl.N=C(N)NC(=O)Cc1c(Cl)cccc1Cl [GUANFACINE HYDROCHLORIDE]", "assayed system": "Fibroblast", "test value": "58%"}
{"compound": "CN(C)C(=O)Cn1cc(-c2ccc(-c3cncc4ccccc34)cc2)cn1", "assayed system": "Fibroblast", "test value": "85%"}
{"compound": "COc1ccccc1N1CCN(C[C@@H](C(=O)NC(C)(C)C)c2ccccc2)CC1.Cl.Cl", "assayed system": "Fibroblast", "test value": "76%"}
{"compound": "Cc1c(CC(=O)O)c2cccnc2n1Cc1ccc(S(C)(=O)=O)cc1C(F)(F)F", "assayed system": "Fibroblast", "test value": "52%"}
{"compound": "Br.CS(=O)(=O)Nc1c(O)ccc2c1CCCC2C1=NCCN1 (centres undefined)", "assayed system": "Fibroblast", "test value": "41%"}

Give the measured Population Tubulin-Different-Phenotype (%) of Cc1onc(-c2ccccc2Cl)c1C(=O)N(C)c1ccc(Cl)cc1 .
59%

Give the measured Population Tubulin-Different-Phenotype (%) of COC[C@@H](c1ccc(C(F)(F)F)cc1)N1CCN(C2(C)CCN(C(=O)c3c(C)ncnc3C)CC2)C[C@@H]1C.O=C(O)/C=C\C(=O)O [VICRIVIROC MALEATE] .
60%

Give the measured Population Tubulin-Different-Phenotype (%) of CCCOc1ccc2[nH]cc(C3=CCNCC3)c2n1.Cl .
61%

Give the measured Population Tubulin-Different-Phenotype (%) of Cc1cccc(NC(=O)CN2CCC(c3ccccn3)CC2)c1.Cl.Cl .
50%

Give the measured Population Tubulin-Different-Phenotype (%) of CC(C)c1noc(N2CCC(COc3ccc(-c4ccc(S(C)(=O)=O)cc4)nc3)CC2)n1 .
56%

Give the measured Population Tubulin-Different-Phenotype (%) of O=C(NCCN1CCC(n2c(=O)[nH]c3cc(Cl)ccc32)CC1)c1ccc(F)cc1 [HALOPEMIDE] .
94%

Give the measured Population Tubulin-Different-Phenotype (%) of CC[C@@H](C)Nc1nc(C)nc2c(-c3ccc(OC)nc3C)c(C)nn12 .
76%

Give the measured Population Tubulin-Different-Phenotype (%) of Cc1cnc(-c2cc(N3CCN(C(=O)CCS(C)(=O)=O)CC3)ncc2Cl)c(C)c1 .
38%

Give the measured Population Tubulin-Different-Phenotype (%) of CC(=O)Nc1cccc2c1c(Sc1ccc(Cl)cc1)c(C)n2CC(=O)O .
40%

Give the measured Population Tubulin-Different-Phenotype (%) of CC(/C=C1\SC(=S)N(CCCC(=O)Nc2ccc(C(=O)O)c(O)c2)C1=O)=C\c1ccccc1 .
70%

Give the measured Population Tubulin-Different-Phenotype (%) of CC(C)COc1ccc(CNC(=O)N(Cc2ccc(F)cc2)C2CCN(C)CC2)cc1 .
96%
